Value source: ChEMBL document CHEMBL1121579

Test system: Rattus norvegicus
Assay: Decrease in mean arterial blood pressure in response to intravenous administration at 4 uM/kg of the compound
Assay type: functional, Artery
PROPERTY NAME: Decrease in blood pressure
Provide the measurement as a number trailed by its unit.

Example entries begin here.
>>> observed_measurement("CNC1=Nc2ccccc2CN1")
"7.7%"
>>> observed_measurement("CCCN(CCC)C1=NCc2ccccc2N1")
"7.6%"
>>> observed_measurement("CN(C)C1=Nc2ccccc2CN1")
"0%"

The recorded Decrease in blood pressure for `NC1=Nc2ccccc2CN1` is 12%
